Test: plasmodial surface anion channel blockers, osmotic lysis – cell-based, P. falciparum Indochina, OD700, 1 h, primary screen (AID 1154)
Details: P. falciparum Indochina infected RBC osmotic lysis, higher = more signal, called active from +8 up or from −8 down
Use 4 as the dividing line for z-score, with the line itself on the 1.0 side and lower values as 0.0.

These recorded examples may help you get a feel for the data.
COCC(=C=CC[C@H](O)c1ccccc1OCCO)C[C@H](O)c1ccccn1 ... 0.0
COc1cc2c(cc1O)C=[N+](Cc1sc3ccccc3c1Cl)CC2 ... 1.0
CCCC=C(CCC)[C@@H](NS(=O)(=O)CC12CCC(CC1=O)C2(C)C)c1ccc(C(=O)OC)cc1 (some centres not stated) ... 0.0
CN(C)C(=O)[C@@]1(Cc2ccccc2)N=C(c2ccc(OCCCO)cc2)O[C@H]1c1ccccc1 ... 1.0
Cc1ccc(NN2C(C(O)c3c(F)cccc3Cl)C=CC3C(=O)N(C4CCCCC4)C(=O)C32)cc1 (configuration not stated) ... 1.0

Ask: Could you verify whether the entry CCCNC(=O)[C@@]1(C)c2ccccc2C(=O)N(c2ccc(C)cn2)[C@H]1c1ccc(CO)cc1 shows z-score of no less than 4?
Reply: 0.0

Ask: Could you verify whether the entry COCC(=C=CC[C@H](O)c1ccc(CO)o1)CCO shows z-score of no less than 4?
Reply: 0.0

Ask: Could you verify whether the entry Cc1ccc(S[C@]2(C(=O)NCc3ccccc3)CC(=O)N(C3CCCCC3)[C@@H]2c2ccc(CO)cc2I)cc1 shows z-score of no less than 4?
Reply: 1.0

Ask: Could you verify whether the entry Cc1ccc(S[C@]2(C(=O)O)CC(=O)N(C3CCCCC3)[C@@H]2c2ccc(CO)cc2I)cc1 shows z-score of no less than 4?
Reply: 1.0

Ask: Could you verify whether the entry CC(C)N1C(=O)C[C@@](C(=O)NC2CC2)(c2ccc([N+](=O)[O-])cc2)[C@H]1c1ccc(CO)cc1 shows z-score of no less than 4?
Reply: 0.0

* * *

Target: Dickkopf-related protein 1 (Homo sapiens) (UniProt O94907)
Sequence (O94907 whole entry, looked up): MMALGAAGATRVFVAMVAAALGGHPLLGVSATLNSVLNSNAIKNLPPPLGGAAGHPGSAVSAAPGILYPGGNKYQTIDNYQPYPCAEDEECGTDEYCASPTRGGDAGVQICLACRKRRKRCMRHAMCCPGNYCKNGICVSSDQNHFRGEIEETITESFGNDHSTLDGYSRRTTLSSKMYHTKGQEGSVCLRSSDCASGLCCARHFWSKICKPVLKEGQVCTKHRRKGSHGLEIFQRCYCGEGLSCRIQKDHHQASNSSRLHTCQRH
Experiment: small molecules binding DKK1 protein – biochemical, small-molecule microarray, 635 nm fluorescence scan, primary screen (AID 1106);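 further: score merges emission near 667 nm with signal to noise over three replicate slides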
Conditions: higher = more signal
// classify(record): look up composite z-score in ranges group 1 = under 0.0004, group 2 = from 0.0004 up to 0.4, group 3 = 0.4 and over

These recorded examples may help you get a feel for the data.
Cn1cccc1C(O)C1C=CC2C(=O)N(c3ccccc3)C(=O)C2N1Nc1ccccc1 (stereo not given) ... group 3
CCOC(=O)C1=C[C@@H](C(C)C)N(S(=O)(=O)c2ccc(C)cc2)[C@H]1c1ccc(C(F)(F)F)cc1 ... group 3
CCCCC(CC)C(O)C1C=CC2C(=O)N(c3ccccc3)C(=O)C2N1Nc1ccc(C#N)cc1 (stereo not given) ... group 2
COc1ccc(C(=O)Nc2ccc(CN3C(=O)[C@]4(O[C@H](CC(=O)N5Cc6ccccc6C[C@H]5CO)[C@@H]([Si](C)(C)c5ccc(OC)cc5)[C@@H]4C)c4ccccc43)cc2)cc1 ... group 3
COc1ccccc1CN1C(=O)c2ccccc2[C@](Cc2ccccc2I)(C(=O)O)[C@@H]1c1ccc(CO)cc1 ... group 3

Ask: Could you tell me which band COCCOC(=O)N1C(=O)[C@@]2(c3cc(C#CC4=CCCCC4)ccc31)[C@H](c1ccccc1OCCO)N1[C@H](c3ccccc3)[C@H](c3ccccc3)OC(=O)[C@H]1[C@@H]2C(=O)N1CCN(c2ncccn2)CC1 belongs to?
Reply: group 3

Ask: Could you tell me which band CCCCCN1CC=CC23O[C@@H]4/C=C\CCC(C)OC(=O)C4[C@H]2C(=O)N(C(CO)C(C)C)[C@@H]3C1=O (stereo not given in full) belongs to?
Reply: group 1

Ask: Could you tell me which band NCCCCCNC(=O)[C@H]1C[C@H]2C(=O)N3CCC[C@H]3C(=O)N2[C@H]1c1cccc(OCCO)c1 belongs to?
Reply: group 1

Source listed as PubChem BioAssay.
